Consider the following compounds and their measured GI50 readings.
Tested on: K-562 leukemia
Assay: NCI tumour cell line growth inhibition, 48 h

Entry under test: "C=CCNc1nc(O)c(/C=C2\C=Nc3ncccc32)s1" . Its GI50 was 4.26 µM

Entry under test: "Oc1[nH]c(N=C2N=c3ccccc3=N2)c2ccccc12" . Its GI50 was 9.86 µM

Entry under test: "COc1ccc(C(C#N)=C2C=CC(=NO)C=C2)cc1" . Its GI50 was 7.26 µM

Entry under test: "O=C1OCC(c2ccc(O)cc2)=C1c1cc(O)c(O)c(O)c1" . Its GI50 was 82.2 µM

###

Tested on: SR leukemia
Assay: NCI tumour cell line growth inhibition, 48 h
Measured Attribute: TGI

Smiles	Measured Attribute	Result Value
Cc1cc(C(=O)Nc2cc(Oc3ccc4nc(NC(=O)C5CC5)cn4n3)ccc2C)n(C)n1	TGI	> 10 µM
O=c1cc(-c2ccccc2)oc2ccc(OC/C(=N/O)c3ccc(F)cc3)cc12	TGI	> 50 µM

// next entry
Entry under test: "N#CCCN(CCC#N)c1ccc(/C=C2\SC(=S)NC2=O)cc1" . Its TGI was > 100 µM

###

System: NCI/ADR-RES ovarian
Assay: NCI tumour cell line growth inhibition, 48 h
Consider the following compounds and their measured TGI readings.

Some entries whose results are on file:
Compound	TGI
CC(=O)NNc1nc(C)c(C(/C=C/c2ccc([N+](=O)[O-])cc2)=N/NC(N)=O)s1	> 100 µM
COc1ccc(OC)c(NC(=O)c2cccc(NC3=C(Cl)C(=O)N(Cc4ccccc4)C3=O)c2)c1	> 100 µM
CN(C)C[C@H]1CCn2c(c(C3=C(c4cn(C)c5ccccc45)C(=O)NC3=O)c3ccccc32)C1	14.2 µM
O=C(OCC1CCCN2CCCCC12)c1cccnc1 (stereo unspecified)	> 100 µM
COc1cc(OCc2nc3cc(C(F)(F)F)ccc3nc2-c2ccccc2)cc(OC)c1OC	> 100 µM

// next entry
Entry under test: "O=C1NC(=O)[C@@]2(CC[C@@H](O)C2)c2ccncc21" . Its TGI was > 100 µM

###

Tested on: MALME-3M melanoma
Experiment: NCI tumour cell line growth inhibition, 48 h
Measured Attribute: TGI

Some entries whose results are on file:
Compound	TGI
COc1cc(S(=O)(=O)Nc2ccc(-c3csc(N4C(=O)C(Cl)C4c4cccc(Oc5ccccc5)c4)n3)cc2)ccc1Cl (stereo not drawn)	> 100 µM
O=C(Nc1ccc2ncnc(Nc3ccc(Oc4cccc(F)c4)c(Cl)c3)c2c1)c1ccc(CN2CCOCC2)cc1	5.2 µM

Entry under test: "C=C(C)[C@@H]1C/C=C(/CO)CC[C@H]2O[C@]2(C)CC/C=C(\C)CC1" . Its TGI was 28.5 µM

###

Consider the following molecules and their measured TGI readings.
System: HT29 colon
Test: NCI tumour cell line growth inhibition, 48 h

Molecule	Measured Attribute	Result Value
O=C(O)CNc1ccc(Cl)c(Cl)c1	TGI	> 100 µM
O=C(O)/C=C/c1ccc[c]([Sb](=[O])([OH])[OH])c1	TGI	> 100 µM
O=C(CNc1nccs1)Nn1cnc2ccc(S(=O)(=O)Nc3nccs3)cc2c1=O	TGI	> 100 µM

Entry under test: "O=C(N/C(=C\c1c(O)ccc2ccccc12)c1nc2ccccc2[nH]1)c1ccccc1" . Its TGI was > 100 µM

Entry under test: "CSC(=Nc1ccccc1Cl)NC(=O)c1ccc(Br)cc1" . Its TGI was > 100 µM

Entry under test: "CC(C)=O.O=C([O-])C(F)(F)F.O=C([O-])C(F)(F)F.O=C([O-])C(F)(F)F.O=C([O-])C(F)(F)F.[Rh+2].[Rh+2]" . Its TGI was > 100 µM

Entry under test: "O=C(NC12CC3CC(CC(C3)C1)C2)C(=O)c1c[nH]c2ccc(Br)cc12" . Its TGI was 14.4 µM

Entry under test: "Nc1ncnc2c1c(-c1ccc(Oc3ccccc3)cc1)nn2C[C@H]1SSC[C@@H]1O" . Its TGI was 7.35 µM

Entry under test: "C[C@@H](NC(=O)[C@@H]1C[C@]1(C)CO)c1cccc2ccccc12" . Its TGI was > 100 µM

Entry under test: COc1ccc(C2S/C(=C\c3cccc(OC)c3)C(=O)N2NC(=O)Cc2ccccc2)cc1 (stereo not drawn) . Its TGI was > 100 µM

Entry under test: O=C(OCC1CCCN2CCCCC12)c1cccnc1 (stereo not drawn) . Its TGI was > 100 µM

Entry under test: CC(=Nc1ccccc1)C1=C(O)C(Cc2cccc(F)c2)NC1=O (stereo not drawn) . Its TGI was 13.4 µM

###

Tested on: SK-MEL-5 melanoma
Test: NCI tumour cell line growth inhibition, 48 h
Measured Attribute: TGI

Smiles	TGI
O=C1NCN(c2ccccc2)C12CCN(CCCC(c1ccc(F)cc1)c1ccc(F)cc1)CC2	2.97 µM
O=C(N/C(=C\c1c(O)ccc2ccccc12)c1nc2ccccc2[nH]1)c1ccccc1	> 100 µM

Noted TGI for "C=C1C(=O)[C@]23C[C@H]1C[C@@H](O)[C@H]2[C@]1(COC3=O)[C@@H](OC(C)=O)CC[C@@](C)(COC(C)=O)[C@H]1C=O" , tested on SK-MEL-5 melanoma: > 50 µM

###

System: ACHN renal
Experiment: NCI tumour cell line growth inhibition, 48 h
Measured Attribute: TGI (µM)
Provide the reading as a plain figure in µM.

Entry under test: "C=C1C(=O)O[C@H]2[C@H]1CC/C(COC(=O)c1cn(C)c3ccccc13)=C\CC[C@@]1(C)O[C@@H]21" . Its TGI was 2.09

Entry under test: "Cn1cc(-c2nc(-c3c[nH]c4ccncc34)cs2)c2ccccc21" . Its TGI was 2.96

Entry under test: "COc1ccc(C(=O)c2c(-c3ccccc3NC(=O)C(F)(F)F)[nH]c3ccccc23)cc1" . Its TGI was 11.6

###

Test system: NCI-H460 lung
Experiment: NCI tumour cell line growth inhibition, 48 h
Measured Attribute: TGI (µM)
Provide the reading as a plain figure in µM.

Compound	Measured Attribute	Result Value
C=CCOC(=O)c1c(C)n([O-])c2cc(Cl)c(Cl)cc2[n+]1=O	TGI	42.3
O=C(Nc1ccc2ncnc(Nc3ccc(Oc4cccc(F)c4)c(Cl)c3)c2c1)c1ccc(CN2CCOCC2)cc1	TGI	6.39
N/C(=N\NC(=O)c1nc2ccccc2s1)c1ccccn1	TGI	17.9

// next entry
Entry under test: O=P(O)(O)OCC1OC(n2cnc3c(NCc4ccco4)ncnc32)C(O)C1O (stereo unspecified) . Its TGI was 21.4

###

Test system: RXF 393 renal
Test: NCI tumour cell line growth inhibition, 48 h
Consider the following compounds and their measured TGI readings.
Provide the reading as a plain figure in µM.

Compound	Result Value
COc1cc(S(=O)(=O)Nc2ccc(-c3csc(N4C(=O)C(Cl)C4c4cccc(Oc5ccccc5)c4)n3)cc2)ccc1Cl (stereo unspecified)	15.6
CCC[CH2][Sn]([CH2]CCC)([CH2]CCC)[O]C(=O)C(OC(C)=O)c1ccccc1 (stereo unspecified)	0.302
CCC#CC[C@H](O)C/C=C1/C(=O)C=C[C@@H]1C/C=C\CCCC(=O)OC	1.64

// next entry
Entry under test: "Clc1ccccc1[C@@H]1C[C@@H]2Cc3cc(Br)c4ccccc4c3N1O2" . Its TGI was 4.92

###

Consider the following molecules and their measured TGI readings.
System: LOX IMVI melanoma
Test: NCI tumour cell line growth inhibition, 48 h

Molecule	TGI
COc1cc(N)c2[nH]c3c(C)ccc(C)c3c2c1	> 100 µM
O=C1CSC(c2ccc(-c3nc4ccccc4[nH]3)cc2)=N1	> 50 µM
COc1cccc2c1C(=O)c1c(O)c3c(c(O)c1C2=O)C[C@@](O)(C(C)=O)C[C@@H]3OC1CC([N+]([O-])(Cc2ccccc2)Cc2ccccc2)C(O)C(C)O1 (stereo not given in full)	2.41 µM
N/C(=N\NC(=O)c1nc2ccccc2s1)c1ccccn1	> 100 µM
c1cc(CN2CCCNCCNCCCNCC2)ccc1CN1CCCNCCNCCCNCC1	> 100 µM

Entry under test: "COC(=O)[C@@H]1[C@H](O)CCC2=C(CC(=O)c3ccoc3)[C@H](C)CC[C@]21C" . Its TGI was > 50 µM

Entry under test: "CC/C=C\C[C@H](O)C/C=C1/C(=O)C=C[C@@H]1C/C=C\CCCC(=O)OC(C)C" . Its TGI was 0.41 µM

Entry under test: "Cc1ccc(S(=O)(=O)NC(=O)NCCc2ccc(O)c(O)c2)cc1" . Its TGI was > 100 µM

Entry under test: COC1=CC(=O)C2C(C1=O)[C@@H]1c3ccccc3OC(C)(C)[C@H]21 (stereo not given in full) . Its TGI was 27.2 µM

Entry under test: Cc1ccc(NC(=O)C(=O)C(C(=O)c2ccc3ccccc3c2)C2OC(=O)c3ccccc32)c(C)c1 (stereo not given) . Its TGI was 32.2 µM
